# reverse-splicing fitness listing for each entry below
B1: Azoarcus group I ribozyme (parent)
chain: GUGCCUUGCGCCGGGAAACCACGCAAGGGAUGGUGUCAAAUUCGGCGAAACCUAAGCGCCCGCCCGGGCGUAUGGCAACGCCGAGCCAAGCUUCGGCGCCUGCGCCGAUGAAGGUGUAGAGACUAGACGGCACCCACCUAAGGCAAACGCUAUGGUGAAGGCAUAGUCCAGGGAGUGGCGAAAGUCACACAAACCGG

variants of: B1; assay: reverse-splicing fitness (ratio to wild type); higher = more active; in vitro selection; Mg2+ level not given
value.kind: reverse-splicing fitness

{"variant.label": "A120C A145G C169U U176A", "value.kind": "reverse-splicing fitness", "value.measured": 0.153}
{"variant.label": "A111G A145C C169A U176A", "value.kind": "reverse-splicing fitness", "value.measured": 0.0126}
{"variant.label": "C82U A111G A120G A145U C150U C169U U176A", "value.kind": "reverse-splicing fitness", "value.measured": 0.02}
{"variant.label": "C82A A111G A120U C150G C169U", "value.kind": "reverse-splicing fitness", "value.measured": 0.00601}
{"variant.label": "C82G A120G A145U C150G C169U U176G", "value.kind": "reverse-splicing fitness", "value.measured": 0.00487}
{"variant.label": "C82A A111G A145C C169G U176C", "value.kind": "reverse-splicing fitness", "value.measured": 0.0155}
{"variant.label": "C82G A111G A120C A145U C150U C169G", "value.kind": "reverse-splicing fitness", "value.measured": 0.0094}
{"variant.label": "A111G A120C A145G C150A C169G U176A", "value.kind": "reverse-splicing fitness", "value.measured": 0.0231}
{"variant.label": "C82U A111C A120U A145C C169A", "value.kind": "reverse-splicing fitness", "value.measured": 0.00236}
{"variant.label": "C82U A111C A120G C150A C169U U176G", "value.kind": "reverse-splicing fitness", "value.measured": 0.00544}
{"variant.label": "A111C A145U C150A C169G U176G", "value.kind": "reverse-splicing fitness", "value.measured": 0.00765}
{"variant.label": "C82G A111U A120G A145C C169U U176C", "value.kind": "reverse-splicing fitness", "value.measured": 0.0168}
{"variant.label": "C82U A111C A120G A145C C169U U176G", "value.kind": "reverse-splicing fitness", "value.measured": 0.00308}
{"variant.label": "C82U A111C A120U A145C C150A C169A U176G", "value.kind": "reverse-splicing fitness", "value.measured": 0.00183}
{"variant.label": "C82G A111U A145U C150A U176G", "value.kind": "reverse-splicing fitness", "value.measured": 0.0115}
{"variant.label": "A111G C169A U176A", "value.kind": "reverse-splicing fitness", "value.measured": 0.0183}
